These measurements were taken from ChEMBL document CHEMBL1806416.

test system: MDA-MB-231; assay: Cytotoxicity against human MDA-MB-231 cells after 2 days; assay type: functional
endpoint: log10 of IC50 (log10 of the value in nM)

compound	log10 of IC50
c1ccc(-c2cc(-c3ccsc3)c3c(n2)-c2ccccc2OC3)cc1	4.08
c1ccc(-c2cc(-c3ccsc3)nc3c2COc2ccccc2-3)nc1	4.41
c1ccc(-c2cc(-c3ccccn3)c3c(n2)-c2ccccc2OC3)cc1	3.28
c1ccc(-c2cc(-c3ccco3)c3c(n2)-c2ccccc2OC3)cc1	4.06
CC[C@@]1(O)C(=O)OCc2c1cc1n(c2=O)Cc2cc3ccccc3nc2-1	2.48
c1ccc(-c2cc(-c3cccnc3)c3c(n2)-c2ccccc2OC3)nc1	3.86
c1ccc(-c2cc(-c3ccoc3)c3c(n2)-c2ccccc2OC3)cc1	4.00
c1ccc(-c2cc(-c3ccco3)c3c(n2)-c2ccccc2OC3)nc1	3.52
c1ccc(-c2cc(-c3ccccn3)c3c(n2)-c2ccccc2OC3)nc1	3.67
c1cncc(-c2cc(-c3ccco3)nc3c2COc2ccccc2-3)c1	3.04
c1ccc(-c2cc(-c3cccs3)c3c(n2)-c2ccccc2OC3)nc1	3.38
c1ccc(-c2cc(-c3ccccc3)c3c(n2)-c2ccccc2OC3)cc1	3.26
c1ccc(-c2cc(-c3ccccn3)nc3c2COc2ccccc2-3)cc1	4.05
c1ccc(-c2cc(-c3ccco3)nc3c2COc2ccccc2-3)cc1	2.30
c1ccc(-c2cc(-c3cccs3)c3c(n2)-c2ccccc2OC3)cc1	3.59
c1coc(-c2cc(-c3ccco3)c3c(n2)-c2ccccc2OC3)c1	2.78
COc1cccc2c1C(=O)c1c(O)c3c(c(O)c1C2=O)C[C@@](O)(C(=O)CO)C[C@@H]3O[C@H]1C[C@H](N)[C@H](O)[C@H](C)O1	2.60
COc1cc([C@@H]2c3cc4c(cc3[C@@H](O[C@@H]3O[C@@H]5CO[C@@H](C)O[C@H]5[C@H](O)[C@H]3O)[C@H]3COC(=O)[C@H]23)OCO4)cc(OC)c1O [ETOPOSIDE]	2.85
